// data source = the supplement of paper PMC7411054

# Tested on: A549-TP53BP1-CLTA
# assay_procedure: lowest phenotypically active concentration; higher = less potent
# condition_info: treatment time: 24 h
property_measured: lowest phenotypically active concentration

- compound: "Cc1c[nH]c2nccc(Oc3c(F)cc(Nc4cc(Cl)nc(N)n4)cc3F)c12"
  observed_value: "≤ 0.3 µM"
- compound: "COc1c(C)cnc(Cn2cc(C#CCC(C)(C)O)c3c(Cl)nc(N)nc32)c1C"
  observed_value: "≤ 0.3 µM"
- compound: "Cc1ccc2nc(NCCN)c3ncc(C)n3c2c1"
  observed_value: "3 µM"

I'd like to know its lowest phenotypically active concentration. The compound in question is S=C(S)N1CCCC1 [Pyrrolidinedithiocarbamate ammonium]
9 µM

Query (compound): COc1cc2c(NC3CCN(C(C)C)CC3)nc(C3CCCCC3)nc2cc1OCCCN1CCCC1 ; field requested: lowest phenotypically active concentration
3 µM

For the compound CSc1ccc2c(c1)N(CCC1CCCCN1C)c1ccccc1S2 (configuration not stated) [thioridazine] , what lowest phenotypically active concentration is on record?
9 µM

Can you share its lowest phenotypically active concentration? I mean this compound: CC(C)COCC(CN(Cc1ccccc1)c1ccccc1)N1CCCC1 (configuration not stated) [bepridil]
9 µM

Look up lowest phenotypically active concentration: CCN(CC)c1ccc(/C=N/NC(=O)c2ccncc2)c(O)c1
1 µM

Entry CC(C)N(CCCNC(=O)Nc1ccc(C(C)(C)C)cc1)C[C@H]1O[C@@H](n2cc(Br)c3c(N)ncnc32)[C@H](O)[C@@H]1O has what lowest phenotypically active concentration?
3 µM

----------
# Tested on: A549-TUBA1B-RELA
# assay_procedure: phenotypically active (imaging signature differs from DMSO and reproducible) at any of 0.3-9 uM (binary (1 = active, 0 = inactive)); higher = active
# condition_info: treatment time: 24 h
Structures can show the parent of a compound that is named as a salt.
phenotypically active values by entry
Response field accepts a number only; no unit should be typed.

Previously resolved entries follow.
- molecule: "CC/C(=C(/c1ccccc1)c1ccc(OCCN(C)C)cc1)c1ccccc1"
  target_or_test_system: "A549-TUBA1B-RELA"
  phenotypically active: 1
- molecule: "CC(C)(C)c1ccc(S(=O)(=O)/C=C/C#N)cc1"
  target_or_test_system: "A549-TUBA1B-RELA"
  phenotypically active: 0
- molecule: "C[C@@H]1CN(Cc2ccc(F)cc2)[C@@H](C)CN1C(=O)c1cc2c(C(=O)C(=O)N(C)C)cn(C)c2cc1Cl [SCIO 469 hydrochloride]"
  target_or_test_system: "A549-TUBA1B-RELA"
  phenotypically active: 0

Query the reported phenotypically active for A549-TUBA1B-RELA; item: Cc1n[nH]c2ccc(-c3cncc(OC[C@@H](N)Cc4ccccc4)c3)cc12
1

Param readout = phenotypically active; param system = A549-TUBA1B-RELA; param query = C#C[C@]1(O)CC[C@H]2[C@@H]3CCC4=CCCC[C@@H]4[C@H]3C(=C)C[C@@]21CC ; response: value
0

Request body: readout phenotypically active, system A549-TUBA1B-RELA, query Cc1ccc(-n2nc(C(C)(C)C)cc2NC(=O)Nc2ccc(OCCN3CCOCC3)c3ccccc23)cc1 . Return the value.
1

Request - read-out phenotypically active | tested on A549-TUBA1B-RELA | molecule COc1ccc(CC2c3cc(OC)c(OC)cc3CC[N+]2(C)CCC(=O)OCCCCCOC(=O)CC[N+]2(C)CCc3cc(OC)c(OC)cc3C2Cc2ccc(OC)c(OC)c2)cc1OC (stereo not given) [Atracurium besilate]
0

Please tell me: phenotypically active of Cc1cc(Nc2ccc(NC(=O)c3ccc(Nc4ccnc5ccccc45)cc3)cc2)nc(N)n1 , system A549-TUBA1B-RELA?
1
